Sourced from patent US10597366B2

- Tested on: VEGFA concentration in medium of 786-O cells
- protocolSummary: VEGF ELISA Assay
- Assay type: cell-based
- recordedConditions: Homo sapiens, 786-0, read-out: Mean VEGF ELISA EC50
observationType: EC50 (nM)

As a guide, the following entries are already answered.
>  <compound>
O=S(=O)(c1ccc(Oc2cc(F)cc(Cl)c2)c2c1[C@H](O)CC2)C(F)F

>  <EC50 / nM>
250

$$$$
>  <compound>
O=S(=O)(c1ccc(Oc2cc(F)cc(Cl)c2)c(Cl)c1CO)C(F)F

>  <EC50 / nM>
570

$$$$
>  <compound>
O=S(=O)(c1ccc(Oc2cc(F)cc(Cl)c2)c(C(F)F)c1)C(F)(F)F

>  <EC50 / nM>
400

$$$$
>  <compound>
O=S(=O)(c1ccc(Oc2cc(F)cc(Cl)c2)c2c1C(O)CC2)C(F)F (stereo not drawn)

>  <EC50 / nM>
160

$$$$

a: CS(=O)(=O)c1ccc(Oc2cc(Cl)cc(C#N)c2)c2c1[C@H](O)C(F)(F)C2
b: N#Cc1ccc(Oc2cc(F)cc(F)c2)c2c1[C@H](O)C(F)(F)C2
stdin: Of the two listed items, a and b , which carries the larger EC50 figure? Give the label of your selection.
stdout: b
